systemName: TRPML1 (Homo sapiens)
Sequence (Q9GZU1 whole entry L15A/L16A/L577A/L578A, form open): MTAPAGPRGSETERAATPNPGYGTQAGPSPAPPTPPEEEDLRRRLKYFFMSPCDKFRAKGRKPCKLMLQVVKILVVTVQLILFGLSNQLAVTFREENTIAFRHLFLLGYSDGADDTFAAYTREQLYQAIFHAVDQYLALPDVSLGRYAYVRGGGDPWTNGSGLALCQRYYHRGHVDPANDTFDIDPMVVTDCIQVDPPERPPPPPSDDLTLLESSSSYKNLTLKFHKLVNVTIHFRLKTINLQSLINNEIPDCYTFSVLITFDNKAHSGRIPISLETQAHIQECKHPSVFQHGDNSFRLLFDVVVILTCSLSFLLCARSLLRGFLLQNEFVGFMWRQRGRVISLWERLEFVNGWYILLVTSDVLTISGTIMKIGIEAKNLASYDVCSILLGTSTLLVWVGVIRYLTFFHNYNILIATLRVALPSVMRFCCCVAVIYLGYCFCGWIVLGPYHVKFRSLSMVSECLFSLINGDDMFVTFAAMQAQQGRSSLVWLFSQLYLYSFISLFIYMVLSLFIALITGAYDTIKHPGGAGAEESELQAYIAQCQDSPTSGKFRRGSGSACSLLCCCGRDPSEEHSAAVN
testDetails: Fluorescent TRPML1 assay (Fluo4-AM calcium fluorescence in doxycycline-induced HEK-293 Trex cells)
Assay type: cell-based
Protocol: HEK-293 Trex cells were stably transfected with a construct consisting of the human coding sequence for TRPML1 cloned into the […] plasmid pCDNA5 T/O. Mutations were introduced into the TRPML1 sequence to facilitate expression on the cell surface (Silvia Vergarajauregui, Rosa Puertollano, Traffic. 2006 March; 7(3): 337-353). […] The Trypsin-EDTA is diluted with growth media, and cells are counted. […] EC50 values were calculated using a non-linear regression of Prism. […]
pEC50: −log10 of the molar value.
What pEC50 was measured for each of the following?

For TRPML1 (Homo sapiens), provide pEC50 of Cc1cn(-c2cncc(F)c2)c2ncnc(N3C[C@@H](C)N(C(=O)OC(C)(C)C)C[C@@H]3C)c12 please. 6.30 to 7.00

Give recorded pEC50 with TRPML1 (Homo sapiens) for the following compound: C[C@@H]1CN(c2ncnc3c2c(C(F)F)cn3C2CCC(C#N)C2)[C@@H](C)CN1C(=O)OC(C)(C)C (stereo partly shown) 5.70 to 6.30

So what pEC50 did C[C@H]1CN(C(=O)OC(C)(C)C)CCN1c1ncnc2c1c(N(C)C1CC1)cn2-c1cccc(C#N)c1 get with TRPML1 (Homo sapiens)? 6.30 to 7.00

Fill in the recorded pEC50 for this compound, with TRPML1 (Homo sapiens) as test system: Cc1cn(-c2cncc(F)c2)c2ncnc(N3CCN(C(=O)OC(C)(C)C)C[C@@H]3C)c12 > 7.00

Record C[C@@H]1CN(c2ncnc3c2c(-c2ccccc2F)cn3-c2cc(C(F)(F)F)ccn2)[C@@H](C)CN1C(=O)OC(C)(C)C : what is its pEC50 with TRPML1 (Homo sapiens)? > 7.00

Lab request: please report pEC50 under test system TRPML1 (Homo sapiens) for [2H]C([2H])([2H])[C@@H]1CN(c2ncnc3c2c(-c2ccccc2F)cn3-c2cc(C#N)ccn2)[C@@H](C)CN1C(=O)OC(C)(C)C > 7.00

Param readout = pEC50; param system = TRPML1 (Homo sapiens); param query = C[C@H]1CN(c2ncnc3c2c(C(F)(F)F)cn3-c2cc(C#N)ccn2)[C@@H](C)CN1C(=O)OC(C)(C)C ; response: value > 7.00

----------
Provide the recorded pEC50 for the entries that follow.
systemName: TRPML2 (Homo sapiens, UniProt Q8IZK6)
Construct: expressed in transfected cells
Sequence (Q8IZK6 1-566): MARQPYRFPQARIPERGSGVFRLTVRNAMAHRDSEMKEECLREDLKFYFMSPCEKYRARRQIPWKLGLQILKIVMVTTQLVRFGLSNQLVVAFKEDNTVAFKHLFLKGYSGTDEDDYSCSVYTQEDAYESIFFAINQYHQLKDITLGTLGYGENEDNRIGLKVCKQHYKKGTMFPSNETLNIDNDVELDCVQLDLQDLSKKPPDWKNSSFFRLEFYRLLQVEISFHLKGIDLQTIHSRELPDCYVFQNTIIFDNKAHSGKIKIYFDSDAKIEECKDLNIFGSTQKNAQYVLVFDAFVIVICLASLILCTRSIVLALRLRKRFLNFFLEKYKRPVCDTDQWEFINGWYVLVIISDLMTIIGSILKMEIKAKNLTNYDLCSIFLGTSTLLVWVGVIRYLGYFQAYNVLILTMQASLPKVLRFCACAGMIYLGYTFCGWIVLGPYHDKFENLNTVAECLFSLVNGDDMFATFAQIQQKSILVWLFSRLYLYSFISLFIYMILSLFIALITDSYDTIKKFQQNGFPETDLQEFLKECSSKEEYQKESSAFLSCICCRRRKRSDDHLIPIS
testDetails: Fluorescent TRPML2 assay (performed as for TRPML1, substituting the TRPML2 subtype)
Format: cell-based
testParameters: fluorescent calcium assay
pEC50: −log10 of the molar value.

Consider the compound shown here: C[C@@H]1CN(c2ncnc3c2c(N2CCC2)cn3-c2cccc(Cl)c2)[C@@H](C)CN1C(=O)OC(C)(C)C What is its recorded pEC50? > 7.00

Which value of pEC50 has been reported for C[C@@H]1CN(c2ncnc3c2c(C2CC2)cn3-c2cc(Cl)cc(Cl)c2)CCN1C(=O)OC(C)(C)C in the records? 6.30 to 7.00

Quick check: pEC50 of C[C@H]1CN(c2ncnc3c2c(C2CC2)cn3-c2cc(F)cc(F)c2)CCN1C(=O)OC(C)(C)C ? 5.70 to 6.30

Entry CC(C)(C)OC(=O)N1CCN(c2ncnc3c2c(C2CC2)cn3-c2cc(C#N)ccn2)[C@H]2C[C@H]21 (single isomer, unassigned) : reported pEC50 = ? 6.30 to 7.00

Given the entry Cc1nccnc1-c1cn(-c2cc(F)cc(F)c2)c2ncnc(N3CCN(C(=O)OC(C)(C)C)C[C@@H]3C)c12 , report its measured pEC50. 5.70 to 6.30

What does the data say about its pEC50? Entry: C[C@@H]1COCCN1c1cn(-c2cccc(C#N)c2)c2ncnc(N3CCN(C(=O)OC(C)(C)C)C[C@@H]3C)c12 5.70 to 6.30

Reported pEC50 for Cc1ccc(Cl)cc1-n1cc(-c2ccccn2)c2c(N3CCN(C(=O)OC(C)(C)C)CC3C)ncnc21 (stereo not shown) : what is it? 6.30 to 7.00
